Values were extracted from patent US9834514B2.

tested on: P. aeruginosa; assay: Resensitization to antibiotics (log reduction, TABLE 29); type: cell-based; conditions: compound 20 μM; PME (0.1 μg/mL)
Each entry below carries its reported Log Reduction.
MEASURED METRIC: Log Reduction

1. Clc1ccc(/N=N/c2c[nH]c3ccccc23)cc1: 2
2. Clc1ccc(Oc2c(-c3ccc(Cl)cc3)[nH]c3ccccc23)cc1: 2
3. Brc1ccc(/N=N/c2c[nH]c3ccccc23)cc1: 4
4. Clc1ccc(/C=C/c2[nH]c3ccccc3c2/C=C/c2ccc(Cl)cc2)cc1: 2
5. Clc1ccc(Oc2c(-c3ccc(Cl)cc3)[nH]c3ccc(Cl)cc23)cc1: 2
